Reported CC50 at 144 h values are given for each entry in this list.
assay: Cytotoxicity in PHH natural infection assay (Cell Counting Kit-8); type: cell-based; details: human; HBV-infected PHH, CCK8, compound refreshed two times with 72-hour interval
Recorded Endpoint: CC50 at 144 h

compound="CCN1CC(C(=O)NC2CC3(C2)CC(c2nc4cc(Cl)ccc4s2)C3)CC1=O (stereo not shown)" measured_result="> 10 µM"
compound="[H][C@]1(NC(=O)c2cc(C(N)=O)ncn2)C[C@@]2(C1)C[C@]([H])(c1nc3cc(Cl)ccc3s1)C2 (single isomer, unassigned)" measured_result="> 10 µM"
compound="NC(=O)c1cc(C(=O)NC2CC3(C2)CC(c2nc4cc5c(cc4s2)OCO5)C3)ccn1 (stereo not shown)" measured_result="23.3 µM"
compound="NS(=O)(=O)c1cccc(C(=O)NC2CC3(C2)CC(c2nc4cc(Cl)ccc4s2)C3)c1 (stereo not shown)" measured_result="> 10 µM"
